Parameter protein stability index: see the listing below.
B1: COX4I1 (parent)
chain: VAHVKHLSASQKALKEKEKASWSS

Variants of: B1
Procedure summary: protein stability index of a GFP-peptide fusion (GPS, HEK-293T) (PSI 1-6); higher = more stable;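 note: lentivirally expressed fusions sorted by FACS into six bins by GFP to DsRed ratio, PSI derived from sequencing read proportions per bin multiplied by bin number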
Settings: c terminus: a fixed tail appended

| Mutation string | protein stability index |
| --- | --- |
| K5I | 2.4 |
| A20T | 3.25 |
| A2G | 3.29 |
| S8G | 3.64 |
| W22Y | 4.29 |
| L14R | 3.7 |
| S10G | 3.46 |
| L7V | 3.68 |
| S23V | 2.61 |
| H3K | 3.16 |
